Assay: chemical genetic growth profiling, strain panel (AID 1159580);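 further: tested at 20 µM; growth read once vehicle control cultures reached saturation at 30 °C; 1 = growth at the plate median or of vehicle wells; lower values mean less growth of the strain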
Details: S. cerevisiae deletion strains, growth OD, locus YKL190W, strain CNB1, active compounds read low
Among all 5,500 compounds or so, about 2,000 (36%) were called active. Roughly 18% stayed inconclusive and do not appear here. This is one part of the list.
Threshold 1: normalized growth strictly smaller gives 1.0, otherwise 0.0.

As a guide, the following entries are already answered.
SMI: COc1ccc2oc3ccccc3c(=O)c2c1
DISCRETE_LABEL: 1.0

SMI: COc1ccc2oc(-c3ccccc3)c(OC)c(=O)c2c1
DISCRETE_LABEL: 1.0

Identify whether the compound `Cc1c(C)c(C)c(CSc2nc3ccccc3[nH]2)c(C)c1C` records normalized growth below 1.
0.0
